biological target: d-enCas12a-Ultra (Acidaminococcus sp., UniProt U2UMQ6 1-1307, E174R;S542R;K548R;M537R;F870L;D908A;E993A;D1235A); test: Spec-seq (native PAGE EMSA with sequencing of bound and unbound); 25 mM Tris-HCl pH 7.4, 150 mM KCl, 5 mM MgCl2, 10% glycerol, 1 mM DTT, 40 ng/uL salmon sperm DNA; 400 nM Cas12a, 480 nM crRNA, 50 nM library, 37 C 1 h; native PAGE at room temperature; high values mean tight binding; conditions: protein: recombinant;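 further: relative affinity from the bound to unbound sequence frequency ratio in Spec-seq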
MEASURED ENDPOINT: binding signal (lnKA)
Please state the figure in lnKA; there is no need to write the unit.

[
  {
    "BINDER": "TCTA (dsDNA) DNA 1: GCTATCTAGTGCTCAGTACGCACTGTCTAAGGAAACTTCTGGCAGGACCAGGTCATGAGATCGGAAGAGCACACGTCTGAACTCCAGTCA DNA 2: TGACTGGAGTTCAGACGTGTGCTCTTCCGATCTCATGACCTGGTCCTGCCAGAAGTTTCCTTAGACAGTGCGTACTGAGCACTAGATAGC RNA: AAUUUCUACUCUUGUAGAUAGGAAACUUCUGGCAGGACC",
    "OBSERVED VALUE": -0.837
  }
]

--- query ---
Would you kindly share the measured binding signal for GCCG (dsDNA) DNA 1: GCTATCTAGTGCTCAGTACGCACTGGCCGAGGAAACTTCTGGCAGGACCAGGTCATGAGATCGGAAGAGCACACGTCTGAACTCCAGTCA DNA 2: TGACTGGAGTTCAGACGTGTGCTCTTCCGATCTCATGACCTGGTCCTGCCAGAAGTTTCCTCGGCCAGTGCGTACTGAGCACTAGATAGC RNA: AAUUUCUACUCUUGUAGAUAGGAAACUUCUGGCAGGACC ? -1.86

Data credit: paper PMC8222333
